Tested on: FvJMT2 (FvJMT2^C275, functional full-length allele)
Construct: full-length CDS (1173 nt, 390 residues) in pQE80L, N-terminal 6xHis tag, E. coli XL1-Blue, Ni-NTA purified; tag removal not mentioned
Test name: radiochemical methyl transfer from […]-SAM, hexane extraction, scintillation counting; nonlinear Michaelis-Menten fit
Format: biochemical, Fragaria vesca
Experimental conditions: co-substrate SAM (saturating); 50 mM Tris-HCl pH 7.5, 2.5 mM MgCl2, 5 mM DTT, 2.5 mM EDTA, 30 °C; read-out: Kinetic parameters / Km /
Assay endpoint: Km (µM)

[[record]]
molecule_smiles = "O=C(O)/C=C/c1ccccc1"
assay_endpoint = "Km"
units_label = "µM"
measured_result = 597

[[record]]
molecule_smiles = "O=C(O)c1ccccc1O"
assay_endpoint = "Km"
units_label = "µM"
measured_result = 690


[A] O=C(O)c1ccccc1
[B] CC/C=C\C[C@H]1C(=O)CC[C@@H]1CC(=O)O
Prompt: Could you please tell me which of these two has the higher Km: A or B ? Answer by quoting the chosen item's label.
Response: A
(A: 577 µM, B: 174 µM)
